# assay-system: T1, water-soluble hFcRn (human, UniProt P55899 24-297; P61769 21-119, limits assumed)
# T1 construct: also called shFcRn; human FcRn
# T1 sequence (P55899 24-297 limits assumed, chain 1 of 2): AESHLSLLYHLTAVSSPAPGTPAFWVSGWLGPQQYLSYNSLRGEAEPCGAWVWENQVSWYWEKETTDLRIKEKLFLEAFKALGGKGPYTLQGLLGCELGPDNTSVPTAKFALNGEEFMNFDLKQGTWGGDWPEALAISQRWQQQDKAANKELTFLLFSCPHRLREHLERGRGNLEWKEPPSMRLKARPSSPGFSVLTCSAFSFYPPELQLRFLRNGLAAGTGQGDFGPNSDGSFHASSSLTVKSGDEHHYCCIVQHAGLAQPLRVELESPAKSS
# T1 sequence (P61769 21-119 limits assumed, chain 2 of 2): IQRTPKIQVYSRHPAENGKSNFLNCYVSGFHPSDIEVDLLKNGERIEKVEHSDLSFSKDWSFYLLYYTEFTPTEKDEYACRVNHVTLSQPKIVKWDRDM
# experimental-details: SPR (Proteon XPR36, GLC chip), shFcRn immobilised, antibody as analyte, pH 7.4, 1:1 Langmuir, mean of six runs
koff by entry:

{"columns": ["binder", "koff / s⁻¹"],
 "data": [
  ["HL161C antibody (antibody, human IgG1, V domains shown) VH: QVQLVQSGAEVKKPGASVKVSCKASGYTFTGCYMHWVRQAPGQGLEWMGRINPNSGGTNYAQKFQGRVTMTRDTSISTAYMDLSRLRSDDTAVYYCARDYSGWSFDYWGQGTLVTVSS VL: DIQMTQSPSSLSASVGDRVTITCRASQGISNYLAWFQQKPGKAPKSLIYAASSLQSGVPSKFSGSGSGTDFTLTISSLQSEDFATYYCQQYDSYPPTFGGGTKVEIKRTVAAPSVFI", 0.000316],
  ["HL161A antibody (antibody, human IgG1, V domains shown) VH: EVQLLESGGGLVQPGGSLRLSCAASEFTFGSCVMTWVRQAPGKGLEWVSVISGSGGSTYYADSVKGRFTISRDNSKNTLYLQMNSLRAEDTAVYYCAKTPWWLRSPFFDYWGQGTLVTVSS VL: SYVLTQPPSVSVAPGQTARITCGGNNIGSTSVHWYQQKPGQAPVLVVHDDSDRPSGIPERFSGSNSGNTATLTISRVEAGDEADYYCQVRDSSSDHVIFGGGTKLTVLGQPKAAPSVTL", 0.000327],
  ["HL161D antibody (antibody, human IgG1, V domains shown, the VL entry runs a few residues into the constant region) VH: QLQLQESGPGLVKPSETLSLTCTVSGGSISSSSYYWGWIRQPPGKGLEWIGNIYYSGSTYYNPSLMSRVTISVDTSKNQFSLKLSSVTAADTAVYYCARQLSYNWNDRLFDYWGQGTLVTVSS VL: SYELTQPLSVSVALGQTARITCGGNNIGSKNVHWYQQKPGQAPVLVIYRDSNRPSGIPERFSGSNSGNTATLTISRAQAGDEADYYCQVWDSSTVVFGGGTKLTVLGQPKAAPSVTL", 0.00124],
  ["HL161B antibody (antibody, V domains shown, the VL entry runs a few residues into the constant region) VH: QLLLQESGPGLVKPSETLSLTCTVSGGSLSSSFSYWVWIRQPPGKGLEWIGTIYYSGNTYYNPSLKSRLTISVDTSKNHFSLNLSSVTAADTAVYYCARRAGILTGYLDSWGQGTLVTVSS VL: SYVLTQSPSVSVAPGQTARITCGGNNIGSKSVHWYQQKPGQAPVLVVYDDSDRPSGIPERFSASNSGNTATLTISRVEAGDEADYYCQVWDSSSDHVVFGGGTKLTVLGQPKAAPSVTL", 0.00125]
]}
